These measurements were taken from patent US20250034136A1.

Biological target: WRN (BV08), human Werner helicase (Uniprot Q14191, amino acids 517-1235 with L1074F point mutation) (Homo sapiens (Human), UniProt Q14191, L1074F)
Sequence (Q14191 other isoform, or with tags, fused parts or gaps L1074F (already in the parent)): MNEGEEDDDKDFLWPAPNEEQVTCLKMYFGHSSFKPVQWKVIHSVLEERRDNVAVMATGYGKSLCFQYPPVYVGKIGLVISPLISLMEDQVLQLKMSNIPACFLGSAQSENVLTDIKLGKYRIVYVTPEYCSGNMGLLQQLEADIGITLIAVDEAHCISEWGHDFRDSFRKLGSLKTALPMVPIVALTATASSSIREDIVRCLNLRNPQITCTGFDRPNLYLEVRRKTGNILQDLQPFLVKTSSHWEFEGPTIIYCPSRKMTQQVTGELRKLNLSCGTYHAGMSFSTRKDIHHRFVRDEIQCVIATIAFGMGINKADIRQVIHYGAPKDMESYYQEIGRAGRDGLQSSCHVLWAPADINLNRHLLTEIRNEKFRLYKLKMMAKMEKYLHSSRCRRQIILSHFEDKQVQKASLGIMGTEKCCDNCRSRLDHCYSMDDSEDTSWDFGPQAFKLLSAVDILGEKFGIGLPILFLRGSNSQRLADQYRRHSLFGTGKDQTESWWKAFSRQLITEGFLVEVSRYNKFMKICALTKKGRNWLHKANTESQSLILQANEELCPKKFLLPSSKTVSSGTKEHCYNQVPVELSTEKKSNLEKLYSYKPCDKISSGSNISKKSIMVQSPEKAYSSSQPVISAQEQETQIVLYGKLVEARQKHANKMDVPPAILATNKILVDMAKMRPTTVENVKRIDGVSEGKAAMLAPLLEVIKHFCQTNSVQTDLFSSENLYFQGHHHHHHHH
Assay: WRN (BV08) ADP-Glo assay
Conditions: class symbols A-E, read-out: ADP-Glo_hWRN_IC50
From the text: Bovine skin gelatin (BSG), dimethyl sulfoxide (DMSO), Pluronic F-127 and tris(2-carboxyethyl)phosphine hydrochloride solution (TCEP) were purchased from Sigma-Aldrich (St. Louis, MO) at the highest level of purity possible. […] The reaction was stopped by the addition of the ADP-Glo Kit components (Promega; Madison, WI) as directed and the relative luminescence units (RLU) were read on an Envision 2104 (Perkin Elmer; Waltham, MA). % inhibition calculation: […]
Reported metric: IC50

[ask] Report IC50 for CCc1c(N2CCN(C(=O)c3ncnc(C)c3O)CC2)c(=O)c2nc(N(C)CC(F)F)cnc2n1CC(=O)Nc1ccc(C(F)(F)F)cc1Cl please.
[reply] 5 to 50 nM

[ask] Would you kindly share the measured IC50 for CCc1c(N2CCN(C(=O)c3ncnc(C)c3O)CC2)c(=O)c2nc(C=C3CC(OC)C3)cnc2n1CC(=O)Nc1ccc(C(F)(F)F)cc1Cl (stereo not drawn) ?
[reply] 5 to 50 nM

[ask] Any idea what IC50 was measured for CCc1c(N2C[C@H]3C[C@@H]2CN3C(=O)c2ncnc(C)c2O)c(=O)c2nc(N(C)C)cnc2n1CC(=O)Nc1ccc(C(F)(F)F)cc1Cl (single isomer, unassigned) [I-257] ?
[reply] > 500 nM

[ask] Item under review: [2H]C([2H])([2H])Nc1cnc2c(n1)c(=O)c(N1CCN(C(=O)c3ncnc(C)c3O)[C@H]3CC[C@@H]31)c(CC)n2CC(=O)Nc1ccc(C(F)(F)F)cc1Cl . Reported IC50?
[reply] ≤ 5 nM

[ask] Given the entry CCc1c(N2CC3CC2CN3C(=O)c2ncnc(C)c2O)c(=O)c2nc(N(C)C)cnc2n1CC(=O)Nc1ccc(C(F)(F)F)cc1Cl (stereo not drawn) , report its measured IC50.
[reply] 100 to 500 nM

[ask] Reported IC50, compound CCc1c(N2CCN(C(=O)c3ncnc(C)c3O)[C@H]3CC[C@@H]32)c(=O)c2nc(N(C)C)c(C)nc2n1CC(=O)Nc1ccc(C(F)(F)F)cc1Cl : ____
[reply] ≤ 5 nM

[ask] Return reported IC50; argument: CCc1c(N2C[C@H]3C[C@@H]2CN3C(=O)c2ncnc(C)c2O)c(=O)c2nc(N(C)C)cnc2n1CC(=O)Nc1ccc(C(F)(F)F)cc1Cl (single isomer, unassigned) [I-256]
[reply] 100 to 500 nM

[ask] Would you kindly share the measured IC50 for C=Cc1nc2c(=O)c(N3CCN(C(=O)c4ncnc(C)c4O)CC3)c(CC)n(CC(=O)Nc3ccc(C(F)(F)F)cc3Cl)c2nc1C ?
[reply] 5 to 50 nM
